# Test system: DMS 114 small cell lung
# procedure-summary: NCI tumour cell line growth inhibition, 48 h
quantity-measured: TGI

>>> meas_value("c1cc(-c2cn3c(n2)SCC3)ccn1")
"> 89.6 µM"
>>> meas_value("Cc1ccc(NC(=O)C(=O)C(C(=O)/C=C/c2ccccc2)C2OC(=O)c3ccccc32)c(C)c1 (stereo unspecified)")
"> 100 µM"
>>> meas_value("COc1ccc(-c2cc(=O)c3c(O)cccc3o2)c(OC)c1OC")
"> 100 µM"
>>> meas_value("COC(=O)C(=O)Cc1nc2ccccc2o1")
"> 100 µM"
>>> meas_value("COc1cc(C2(C)SCCCS2)cc(OC)c1OC")
"> 100 µM"
>>> meas_value("c1ccc2c(c1)CCc1c-2n[nH]c1-c1[nH]nc2c1CCc1ccccc1-2")
"> 100 µM"
>>> meas_value("CCCCCCCCCCCC[N+](CCCCCCCCCCCC)=C1SCCS1")
"3.58 µM"
>>> meas_value("CC1=C(C(=O)Nc2ccc(Cl)c(Cl)c2)C(c2ccc([N+](=O)[O-])cc2)C(C(=O)Nc2ccc(Cl)c(Cl)c2)=C(C)N1")
"9.66 µM"
>>> meas_value("Nc1nc(N)c(CCCCc2ccccc2)c(N)n1")
"> 100 µM"
>>> meas_value("CCOC(=O)c1c[nH]c2ccc3c(c2c1=O)S(=O)(=O)CC3 (tested in a mixture with another compound)")
"> 100 µM"
>>> meas_value("Cc1cc(=O)c2c(O)cc3c(c2o1)CC=C(COC1OC(COC2OC(CO)C(O)C(O)C2O)C(O)C(O)C1O)CO3 (stereo unspecified)")
"> 100 µM"
>>> meas_value("O=C(c1ccccc1)c1c(CC(O)c2ccncc2)n(C(=O)c2ccccc2)c2ccccc12 (stereo unspecified)")
"40.2 µM"
>>> meas_value("O=C(Cc1nc2ccccc2o1)C(=O)Nc1cccc(C(F)(F)F)c1")
"> 100 µM"
>>> meas_value("Cc1cc(NS(=O)(=O)c2ccc(NC(=O)c3cccc4c(Nc5ccc(S(N)(=O)=O)cc5)c5ccccc5nc34)cc2)no1")
"> 100 µM"
>>> meas_value("CCOc1ccc(NC(=O)CCc2nnc(SC)o2)cc1")
"> 100 µM"
>>> meas_value("Oc1cc(-n2cccn2)c(O)cc1-n1cccn1")
"> 67.6 µM"
